biological target: human TLR8 (Homo sapiens); test: TLR8 inhibition reporter assay (HEK-Blue cells, SEAP reporter, R848 stimulation); details: HEK-Blue cells overexpressing human TLR8, SEAP reporter, R848 15.9 μM
Sequence (Q9NR97 27-1041): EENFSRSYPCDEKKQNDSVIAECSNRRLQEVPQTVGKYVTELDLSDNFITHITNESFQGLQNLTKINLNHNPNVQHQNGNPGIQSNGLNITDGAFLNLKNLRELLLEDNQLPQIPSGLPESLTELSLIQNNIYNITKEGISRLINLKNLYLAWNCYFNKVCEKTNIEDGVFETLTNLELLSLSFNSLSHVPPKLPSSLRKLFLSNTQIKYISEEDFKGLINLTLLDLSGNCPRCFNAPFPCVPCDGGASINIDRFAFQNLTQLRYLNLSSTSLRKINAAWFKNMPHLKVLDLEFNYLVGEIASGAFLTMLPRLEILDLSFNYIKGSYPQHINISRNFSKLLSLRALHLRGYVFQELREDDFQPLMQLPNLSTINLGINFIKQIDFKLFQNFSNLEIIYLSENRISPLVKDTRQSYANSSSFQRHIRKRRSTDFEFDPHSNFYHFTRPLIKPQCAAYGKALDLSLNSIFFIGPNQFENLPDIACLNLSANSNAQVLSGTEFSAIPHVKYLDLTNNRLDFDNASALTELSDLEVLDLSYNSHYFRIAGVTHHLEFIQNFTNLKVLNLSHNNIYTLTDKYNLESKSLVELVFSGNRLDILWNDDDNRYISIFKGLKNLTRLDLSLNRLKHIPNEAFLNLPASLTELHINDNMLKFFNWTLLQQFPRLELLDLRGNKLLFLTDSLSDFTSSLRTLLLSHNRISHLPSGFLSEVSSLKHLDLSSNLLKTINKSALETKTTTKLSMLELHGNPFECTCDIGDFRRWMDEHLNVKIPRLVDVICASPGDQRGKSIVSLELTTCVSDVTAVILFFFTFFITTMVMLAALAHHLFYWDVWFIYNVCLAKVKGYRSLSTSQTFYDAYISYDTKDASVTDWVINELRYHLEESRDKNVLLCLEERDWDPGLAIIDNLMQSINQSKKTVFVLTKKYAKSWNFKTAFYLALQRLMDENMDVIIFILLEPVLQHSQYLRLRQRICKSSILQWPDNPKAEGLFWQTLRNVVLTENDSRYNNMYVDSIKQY
Quantity Measured: log10 of IC50 (log10 of the value in nM)
Parameter value (number): base-10 log of IC50 in nM.

molecule="Cc1c(-c2[nH]c3ccc(C4CN(CCCC(F)(F)F)C4)cc3c2C(C)C)cn2cnnc2c1C [Example 554]" val=1.18
molecule="COc1cc(-c2[nH]c3ccc(C4CCC(N5CC(F)C5)CC4)cc3c2C(C)C)cn2ncnc12 (stereo not shown) [Example 21]" val=0.08
molecule="COc1cc(-c2[nH]c3ccc(C4CNCCO4)cc3c2C(C)C)cn2ncnc12 (stereo not shown) [Example 285]" val=-0.25
molecule="Cc1cc(-c2[nH]c3ccc(C4CNC4)cc3c2C(C)C)cn2ncnc12 [Example 257]" val=0.28

Query: Using the record for Cc1c(-c2[nH]c3ccc(C4CNCCO4)cc3c2C(C)C)cn2ncnc2c1C (stereo not shown) [Example 286] , state its measured log10 of IC50.
Result: -0.14

Query: Look up log10 of IC50 of COCCN(C)C1CCC(c2ccc3[nH]c(-c4cn5ncnc5c(C)c4C)c(C(C)C)c3c2)CC1 (single isomer, unassigned) [Example 152] and report it.
Result: 0.53

Query: Indicate the recorded log10 of IC50 value for this molecule: Cc1cc(-c2[nH]c3ccc(C4CCC(N5CCN(C)CC5)CC4)cc3c2C(C)C)cc(C)n1 (single isomer, unassigned) [Example 36]
Result: 0.59
